Ref: patent EP0425968A2

ASSAY_SUMMARY: Serum concentration time profile and pharmacokinetics after transdermal pad administration
Type: in vivo, rhesus monkeys
RUN_PARAMETERS: rhesus monkey, Monkey #423, Transdermal dose 0.77 mg.Kg⁻¹, read-out: AUC Area Under the Curve after transdermal administration
MEASURED_ATTRIBUTE: AUC (ng·h/mL)
The answer is to be given in ng·h/mL; state only the numeric part.

Given CC(C)(C)NCC(O)c1ccc(O)c(CO)c1 (stereo not shown) [albuterol] , respond with its AUC.
1530

====

ASSAY_SUMMARY: Serum concentration time profile and pharmacokinetics after transdermal pad administration
Assay type: in vivo, rhesus monkeys
RUN_PARAMETERS: rhesus monkey, topical or ocular, Monkey #388, Transdermal dose 0.38 mg.Kg⁻¹, read-out: AUC Area Under the Curve after transdermal administration
MEASURED_ATTRIBUTE: AUC (ng·h/mL)
The answer is to be given in ng·h/mL; state only the numeric part.

Given CC(C)(C)NCC(O)c1ccc(O)c(CO)c1 (stereo not shown) , respond with its AUC.
712
